- Test system: Plasmodium falciparum
- experiment: GSK_TCMDC: Inhibition of Plasmodium falciparum 3D7 in whole red blood cells, using parasite LDH activity as an index of growth. Test compounds present at 2uM
- Assay type: functional
endpoint_label: Inhibition
Report field: quantity (unit follows the number).

Can you look up Inhibition on Plasmodium falciparum for C[C@H]1CN(Cc2cccc(-c3cc(CNC(=O)c4cccc(CN5CCN(CCOc6ccccc6)CC5)c4)ccc3F)c2)CCN1.O=C(O)C(F)(F)F ?
91%

Can you look up Inhibition on Plasmodium falciparum for COc1cc(NC(=O)N2CCc3cc(OC)c(OCCN4CCCCC4)cc32)cc(C(F)(F)F)c1.O=C(O)C(=O)O ?
93%

Can you look up Inhibition on Plasmodium falciparum for CCN1CCN(Cc2ccc3nc(-c4cc(C)n(Cc5cc(Cl)ccc5OCc5ccccc5)n4)[nH]c3c2)CC1.Cl ?
100%

Can you look up Inhibition on Plasmodium falciparum for Nc1nccc2ccc(-c3ccsc3)cc12.O=C(O)C(F)(F)F ?
100%

---

- Test system: Plasmodium falciparum
- experiment: GSK_TCMDC: Inhibition of Plasmodium falciparum 3D7 in whole red blood cells, using parasite LDH activity as an index of growth. Test compounds present at 2uM
- Assay type: functional
endpoint_label: Inhibition (%)
Your answer is read as %, so omit the unit and give the number.

                                   compound  result_number
0  Cc1ccc(C)c2sc(N(CCCn3ccnc3)C(=O)c3ccco3)nc12.Cl             96
1  CCOC(=O)c1ccc(NC(=O)N[C@@H](Cc2ccccc2)C(=O)NC2CCN(Cc3ccc(O)c(OC)c3)C2)cc1 (some centres undefined)             88
2  Cc1ccccc1C1CCN(C2CCC(NC(=O)/C=C/c3cc(F)ccc3F)CC2)CC1 (centres undefined)             85
3  COc1ccc(CCNCCCCCNCCCc2ccc(Cl)cc2)cc1OC.Cl            100
4  COc1cc2cc(Cc3cnc(N)nc3N)ccc2c(OC)c1OC.Cl             97

Which Inhibition value is on record for Br.CN(CCON1C(=N)N=C(N)NC1(C)C)c1ccccc1 ?
97

Which Inhibition value is on record for COc1cc(NC(=O)c2sc(-c3ccc(Cl)cc3)cc2NC(=O)c2ccncc2)ccc1OCCN1CCCC1 ?
100

Which Inhibition value is on record for Cc1ncc(CN2CCC(C(=O)Nc3ccc(-c4nc5ccccc5o4)cc3)CC2)s1 ?
82

Which Inhibition value is on record for CCN(CC)CCN(Cc1ccc(-c2ccc(C(F)(F)F)cc2)cc1)C(=O)Cn1c(CCc2cccc(F)c2F)nc(=O)c2cc(C)ccc21.O=C(O)C(O)C(O)C(=O)O ?
95

---

- Tested on: Plasmodium falciparum
- experiment: GSK_TCMDC: Inhibition of Plasmodium falciparum Dd2 in whole red blood cells, using parasite LDH activity as an index of growth. Test compounds present at 2uM
- Type: functional
Entries and their Inhibition values follow.
Your answer is read as %, so omit the unit and give the number.

// solved cases for Inhibition follow
                                   compound  measurement_unit  result_number
0  CC(=O)N1CCC(C(=O)Nc2ccc(-c3cccc(-c4nc5cc(C(F)(F)F)ccc5[nH]4)c3)cc2)CC1                 %             33
1  CN1CCCC(OC(=O)c2ccccc2)C1 (stereo not given)                 %              0
2  COc1ccccc1N1CCN(C(C(=O)NCc2cccc(F)c2)c2ccc(C)cc2)CC1 (stereo not given)                 %             80
3  CC(C)c1ccc(CN2CCC(NC(=O)c3ccc(-c4cccc(Cl)c4)s3)CC2)cc1.O=C(O)C(F)(F)F                 %              6

Kindly consider the entry below.
Which Inhibition value is on record for N#Cc1ccc2[nH]cc(-c3cn4cc(SC5CCCC5)ccc4n3)c2c1 ?
21

---

Entries and their Inhibition values follow.
- Tested on: HepG2
- experiment: GSK_TCMDC: Percent inhibition of human HepG2 cell line. Test compounds present at 10uM.
- Type: functional
Report field: quantity (unit follows the number).

// solved cases for Inhibition follow
In [3]: df
Out[3]:
                                   molecule  result
0  O=[N+]([O-])c1cccc(Nc2cncc(-c3ccc(CO)cc3)c2)c1     16%
1      COc1cc(C)cc(CN2CCC(Cc3ccccc3)CC2)c1O     35%
2  CC(C)(C)C(=O)N1CCN(c2ccc([N+](=O)[O-])c(NC3CC3)c2)CC1      8%

Which Inhibition value is on record for COc1cccc(-c2cccc(CNC3CCN(CC4Cn5c(=O)ccc6ccc(F)c4c65)CC3)c2)c1.O=C(O)C(F)(F)F (configuration not stated) ?
23%

Which Inhibition value is on record for COc1ccc(CN2CCC(Oc3cccc(NC(=O)c4ccc(C(F)(F)F)cc4)c3)CC2)cc1.O=C(O)C(F)(F)F ?
35%

Which Inhibition value is on record for Cl.O=C(Nc1ccc2c(c1)CNCC2)c1ccc(-c2ccc(Cl)cc2)cc1 ?
52%

Which Inhibition value is on record for CS(=O)(=O)CCNCc1nc(-c2ccc3c(Nc4ccc(Oc5ccccn5)cc4)ccnc3c2)cs1 ?
9%

---

Entries and their Inhibition values follow.
- Tested on: Plasmodium falciparum
- experiment: GSK_TCMDC: Inhibition of Plasmodium falciparum Dd2 in whole red blood cells, using parasite LDH activity as an index of growth. Test compounds present at 2uM
- Type: functional
Your answer is read as %, so omit the unit and give the number.

>>> df
                                   molecule            target_desc  endpoint_label  result_number
0  Nc1nccc2ccc(-c3cccc4ncccc34)cc12.O=C(O)C(F)(F)F  Plasmodium falciparum      Inhibition             94
1  CC1(C)CN2CCCC2c2cc(NC(=O)/C=C/c3ccccc3Cl)ccc21.Cl (stereo not given)  Plasmodium falciparum      Inhibition             76
2  COc1cccc(-c2ccc3ccnc(N)c3c2)c1.O=C(O)C(F)(F)F  Plasmodium falciparum      Inhibition             93

Can you look up Inhibition on Plasmodium falciparum for N#CN1CC[C@@H](OC(=O)N[C@@H]2C[C@H]2c2ccccc2)C1 ?
56

Can you look up Inhibition on Plasmodium falciparum for CCOC(=O)C1=C(C)NC2=C(C(=O)CC(C)(C)C2)C1c1ccc(Br)cc1 (stereo not given) ?
66

---

Entries and their Inhibition values follow.
- Tested on: Plasmodium falciparum
- experiment: GSK_TCMDC: Inhibition of Plasmodium falciparum 3D7 in whole red blood cells, using parasite LDH activity as an index of growth. Test compounds present at 2uM
- Type: functional
Your answer is read as %, so omit the unit and give the number.

// solved cases for Inhibition follow
>>> print(df.to_string())
                                   compound            target_desc  endpoint_label  result_number
0  Cc1ccc(C(NC(=O)c2ccccc2)c2ccc3cccnc3c2O)cc1 (centres undefined)  Plasmodium falciparum      Inhibition             92
1  COc1ccc(C(O)CNC(C)CCc2ccccc2)cc1C(F)(F)F.Cl (centres undefined)  Plasmodium falciparum      Inhibition             99
2  N#Cc1ccc(-c2ccc(C(=O)NCCCCN3CCC(c4cn(CCCO)c5ccccc45)CC3)cc2)cc1  Plasmodium falciparum      Inhibition             98

Which Inhibition value is on record for CCCCCCNC(=O)C1Cc2c([nH]c3cc(Cl)ccc23)C2(CCN(Cc3ccccc3)CC2)N1 (centres undefined) ?
90

Which Inhibition value is on record for COc1ccc(Oc2cnc(N)nc2N)c(C(C)C)c1 ?
97

---

- Tested on: Plasmodium falciparum
- experiment: GSK_TCMDC: Inhibition of Plasmodium falciparum 3D7 in whole red blood cells, using parasite LDH activity as an index of growth. Test compounds present at 2uM
- Format: functional
Entries and their Inhibition values follow.

// solved cases for Inhibition follow
>>> print(df.to_string())
                                   compound  result
0  Cl.Nc1c2c(nc3ccc(NC(=O)CCCc4ccccc4)cc13)CCCC2    100%
1           Clc1ccccc1CNc1noc(-c2sccc2Br)n1     97%
2  O=c1ccc(-c2nc3cc(Cl)c(Cl)cc3n2Cc2ccc(Cl)cc2Cl)c[nH]1     88%
3  O=C(Nc1cc(F)cc(F)c1)N[C@H]1CCN(CCCCCNC(=O)C2CC2c2ccc(Cl)c(Cl)c2)C1 (stereo not given in full)     88%
4  CC(C)N1CCCN(C(=O)C2CCN(c3ccc(C(=O)N4CCCC4)cn3)CC2)CC1.Cl     86%
5  O=C(Nc1ccc2c(c1)CCN(C1CCC1)CC2)c1cn(-c2ccccc2)nc1-c1ccccc1.O=C(O)C(F)(F)F    100%
6  CCOc1cc2ncnc(Nc3ccc(OCc4ccccc4F)c(Cl)c3)c2cc1OCC.Cl    100%
7  COc1ccc(NC(=O)Nc2ccc(-c3ccc(-c4nc5ccccc5[nH]4)cc3)cc2)cc1    100%

Which Inhibition value is on record for CC(C)C1CCc2nc(N)nc(N)c2C1.Cl (stereo not given) ?
95%

Which Inhibition value is on record for CN1CCN(c2ccc(Nc3ncc(Cl)c(Nc4cccnc4C(N)=O)n3)cc2)CC1.Cl ?
95%
